Tested on: Hepatitis C virus
assay comment: Antiviral activity against HCV genotype1 infected in human Huh7 cells assessed as reduction of viral replication by steady-Glo luciferase assay
Assay type: functional, organism-based, Hepacivirus hominis
assay setup: genotype 1, Huh-7

{"structure": "CNc1ncnc2c1ncn2[C@@H]1O[C@H](CO)[C@](O)(CO)[C@H]1O", "EC50": "37.8 µM"}
{"structure": "Nc1ncnc2c1ncn2[C@@H]1O[C@H](CO)[C@](O)(CF)[C@H]1O", "EC50": "15.3 µM"}
{"structure": "[N-]=[N+]=NC[C@@]1(O)[C@@H](CO)O[C@@H](n2cnc3c(N)ncnc32)[C@@H]1O", "EC50": "11.8 µM"}
{"structure": "[N-]=[N+]=NC[C@@]1(O)[C@@H](CO)O[C@@H](n2ccc(N)nc2=O)[C@@H]1O", "EC50": "> 100 µM"}
{"structure": "Nc1ncnc2c1ncn2[C@@H]1O[C@H](CO)[C@](O)(CO)[C@H]1O", "EC50": "18.6 µM"}
{"structure": "C[C@@]1(O)[C@H](O)[C@@H](CO)O[C@H]1n1cnc2c(N)ncnc21", "EC50": "0.3 µM"}
{"structure": "[N-]=[N+]=NC[C@@]1(O)[C@@H](CO)O[C@@H](n2cnc3c(O)ncnc32)[C@@H]1O", "EC50": "> 100 µM"}
{"structure": "CNc1ncnc2c1ncn2[C@@H]1O[C@H](CO)[C@](O)(CN=[N+]=[N-])[C@H]1O", "EC50": "> 100 µM"}

---

assay comment: Cytotoxicity against human Huh7 cells after 3 days by WST-1 assay
Format: cell-based, Huh-7

{"structure": "CNc1ncnc2c1ncn2[C@@H]1O[C@H](CO)[C@](O)(CN=[N+]=[N-])[C@H]1O", "scale unit": "µM", "value operator": ">", "CC50 at 72 h": 100}
{"structure": "CNc1ncnc2c1ncn2[C@@H]1O[C@H](CO)[C@](O)(CF)[C@H]1O", "scale unit": "µM", "value operator": ">", "CC50 at 72 h": 100}
{"structure": "Nc1ccn([C@@H]2O[C@H](CO)[C@](O)(CF)[C@H]2O)c(=O)n1", "scale unit": "µM", "value operator": ">", "CC50 at 72 h": 100}
{"structure": "[N-]=[N+]=NC[C@@]1(O)[C@@H](CO)O[C@@H](n2cnc3c(N)ncnc32)[C@@H]1O", "scale unit": "µM", "value operator": "=", "CC50 at 72 h": 12.3}
{"structure": "[N-]=[N+]=NC[C@@]1(O)[C@@H](CO)O[C@@H](n2ccc(N)nc2=O)[C@@H]1O", "scale unit": "µM", "value operator": ">", "CC50 at 72 h": 100}
{"structure": "Nc1ncnc2c1ncn2[C@@H]1O[C@H](CO)[C@](O)(CF)[C@H]1O", "scale unit": "µM", "value operator": "=", "CC50 at 72 h": 18.9}
{"structure": "CNc1ncnc2c1ncn2[C@@H]1O[C@H](CO)[C@](O)(CO)[C@H]1O", "scale unit": "µM", "value operator": "=", "CC50 at 72 h": 58.8}
{"structure": "Nc1ncnc2c1ncn2[C@@H]1O[C@H](CO)[C@](O)(CO)[C@H]1O", "scale unit": "µM", "value operator": "=", "CC50 at 72 h": 37.3}
{"structure": "[N-]=[N+]=NC[C@@]1(O)[C@@H](CO)O[C@@H](n2cnc3c(O)ncnc32)[C@@H]1O", "scale unit": "µM", "value operator": ">", "CC50 at 72 h": 100}
